Tested on: A498 renal
assay_info: NCI tumour cell line growth inhibition, 48 h
For each record, write down the corresponding log10 of TGI.
Please keep in mind that the values are log10 of TGI expressed in µM.

The measured log10 of TGI associated with COc1ccc(C(=O)c2cc(OC)c(OC)c(OC)c2)cc1/C=C/C(=O)c1ccc2c(c1)OCO2 reads 1.22

Measured log10 of TGI, Cc1[nH]c2ccccc2c1C1=CC(=O)C=CC1=O : 1.60

Entry NS(=O)(=O)c1ccc(N=Nc2nc3[nH]cnc(=S)c3[nH]2)cc1 , log10 of TGI reported as 2.00

compound CCOC1=C2C(C)(CCC3[C@@]4(C)C=CC(=O)C(C)(C)C4CC(O)[C@@]23C)C(c2ccoc2)C1=O (stereo partly specified) , log10 of TGI observed: 1.53

# log10 of TGI of O=C1c2ccccc2CCC1(Br)Br = 1.32

The compound listed as O=C(Oc1ccc(OC(Oc2ccccc2)c2ccccc2)cc1)c1ccccc1 (stereo unspecified) shows log10 of TGI equal to 1.38

O=c1cc(-c2ccccc2)nc2cc(-c3ccco3)[nH]n12 has a reported log10 of TGI of 1.46

Query CC#CC(=O)N[C@H]1CCCN(c2c(F)cc(C(N)=O)c3[nH]c(C)c(C)c23)C1 yields log10 of TGI of 1.42

// field: log10 of TGI; key: C/C=C/C=C\C(=O)C1c2cccc(O)c2C(=O)c2c(O)cc(C)cc21 (stereo unspecified) ; value = 0.89

----------
Test system: LOX IMVI melanoma
assay_info: NCI tumour cell line growth inhibition, 48 h; in the data active = GI50 below about 0.43 µM; inactive = the rest
Response enum: active, inactive

Task: Assay outcome for O=c1cc(-c2ccccc2)nc2cc(-c3ccco3)[nH]n12 : what was it?
Result: inactive

Task: What was the test verdict on O=C(c1ccncc1)N1CCN(C2=NS(=O)(=O)c3ccccc3N2c2ccccc2)CC1 ?
Result: inactive

Task: Dear colleague, could you share the recorded outcome for c1ccc(C2=NN[C@H](c3cn(-c4ccccc4)nc3-c3ccccc3)C2)cc1 when you have a moment?
Result: inactive

Task: Could you kindly confirm the outcome this assay logged for OCCN1CCN(c2nc(Nc3ccc(-c4nc5ccccc5[nH]4)cc3)c3cn[nH]c3n2)CC1 ?
Result: inactive

Task: Please share the test call associated with CCCC(=O)Nc1ncnc2c1ncn2C1OC2COP(=O)(O)OC2C1OC(=O)CCC (stereo unspecified) .
Result: inactive

Task: Could you please tell me the result logged for O=C1c2ccccc2CCC1(Br)Br in this assay?
Result: inactive

Task: Test call, this compound: CC(=O)OC1CC(C)c2c(Cl)ncnc21 (stereo unspecified)
Result: inactive

Task: Recorded test outcome, item Cc1nn(-c2ccccc2)c(C)c1/C=N/N1CCN(Cc2ccccc2)CC1
Result: inactive

Task: What classification did O=C1C(Cl)=C(Nc2cccc(O)c2)C(=O)N1c1ccc(Cl)cc1Cl end up with in this test?
Result: inactive

Task: Given C[CH2][Sn]([Cl])([CH2]C)[CH2]C , state the outcome it received in this test.
Result: active

Task: Test call for this compound, please: CS(=O)(=O)c1ccc(-c2[nH]c3ccc(F)cc3c2/C=N/NC(N)=S)cc1
Result: inactive

----------
Test system: SF-295 CNS
assay_info: NCI tumour cell line growth inhibition, 48 h; in the data active means GI50 below about 0.43 µM; inactive means the rest
Assign a class; possible classes are Yes = active, No = inactive

Task: Look up the recorded call for O=C(Nc1ccc(O)c(NS(=O)(=O)c2ccc(F)cc2)c1)c1ccc(-c2ccccc2)cc1 in this test.
Result: No

Task: Dear all, I need the recorded test outcome for Cc1ccc(C(CC(=O)c2ccccc2)C(C(=O)c2ccccc2)C(c2ccc(C)cc2)C2C(=O)NC(=S)NC2=O)cc1 (centres undefined) , thank you.
Result: No

Task: How was COc1cc(/C=N/Nc2ncnc3c2cnn3Cc2ccccc2)ccc1O classified in this test?
Result: No

Task: For COC(=O)c1cc(NC(=O)CN(CCN(CC(=O)O)CC(=O)Nc2ccc(O)c(C(=O)OC)c2)CC(=O)O)ccc1O , what call appears in the results of this test?
Result: No

Task: Record lookup: outcome of this test for Cc1cccc2c1NC(=O)C2(c1ccc(O)cc1)c1ccc(O)cc1 ?
Result: No

Task: What classification did O=C(c1ccncc1)N1CCN(C2=NS(=O)(=O)c3ccccc3N2c2ccccc2)CC1 end up with in this test?
Result: No

Task: Answer briefly: the call reported for CS(=O)(=O)c1ccc(-c2[nH]c3ccc(F)cc3c2/C=N/NC(N)=S)cc1 in this assay.
Result: No

Task: Could you please tell me the result logged for CNc1ccc(C(=O)CC(O)CCC(C)C2OC(=O)CC(O)CC(=O)CC(O)CC(O)CC(O)CC(O)CC3(O)CC(O)C(C(=O)NCCc4ccccn4)C(CC(OC4OC(C)C(O)C(N)C4O)/C=C/C=C/C=C/C=C\C=C/C=C/C=C/C2C)O3)cc1 (centres undefined) in this assay?
Result: No

Task: Lab log entry: O=C1C(Cl)=C(Nc2cccc(O)c2)C(=O)N1c1ccc(Cl)cc1Cl — outcome as called in the assay?
Result: No

Task: Which result was noted for this compound in the test: CCNC(=O)c1ccc2c(c1)nc(-c1ccc(Cl)cc1)n2-c1cc(C(C)(C)C)[nH]n1
Result: No

Task: Dear colleague, could you share the recorded outcome for Cc1cccc2c1ccc1c3occ(C)c3c(=O)oc21 when you have a moment?
Result: No

Task: Assay result, entry C/C=C1\C[C@@H]2C(OC)Nc3cc(O)c(OC)cc3C(=O)N2C1 (some centres undefined) — outcome?
Result: Yes

Task: So what was the verdict on COc1ccc2c(c1)c(-c1nc(-c3cn(C)c4ncccc34)cs1)cn2CCCCN1CCOCC1 in this test?
Result: No

Task: Record request — test call for O=C(OC(CNc1c(C(=O)c2ccccc2)c(=O)n(Cc2ccccc2)c(=O)n1Cc1ccccc1)CN1CCCCC1)c1ccccc1 (centres undefined)
Result: No
